Assay: in vivo
Details: mouse, po
Assay endpoint: LD50 at 336 h (mg/kg)
Write the answer as a number in mg/kg, unit excluded.

Asked: // query LD50 at 336 h value for entry CC(C)(CO)C(=O)C(=O)NCCCO [ketopanthenol]
Given back: 23500
